Where do the numbers come from? From ChEMBL document CHEMBL1156691.

# Subject of test: Prothrombin (Homo sapiens, UniProt P00734)
Reported property: Kd (mM)

[
  {
    "Smiles entry": "NCCc1c[nH]c2cc(F)ccc12",
    "Unit name": "mM",
    "Observed result": 6.9
  }
]

----------
# Subject of test: Prothrombin (Homo sapiens)

[
  {
    "Smiles entry": "N=C(N)NCCCC[C@@H](NC(=O)[C@@H](Cc1ccc(O)cc1)NC(=O)[C@@H]1CCN1C(=O)[C@H](CC1CCCCC1)NC(=O)[C@H]1CC[C@H](CNC(=N)N)CC1)C(N)=O",
    "Subject of test": "Prothrombin (Homo sapiens)",
    "Ki": "3 nM"
  }
]
